Experiment: qHTS for ATAD5 Antagonist screened against the NCATS CANVASS Library (AID 1347370); also: nearly all actives have a fitted effect of over 65% in size
Settings: HEK293T-ATAD5-luc, 5-FUrd stimulated, luminescence, 16 h; series mostly up to 46.1 µM
From the text: Natural products and their derivatives continue to be wellsprings of nascent therapeutic potential. […] To address this issue, the Canvass library of natural products was assembled (https://tripod.nih.gov/canvass), in collaboration with academic and industry researchers, for quantitative high-throughput screening (qHTS) across a diverse set of cell-based and biochemical assays. […] Luminescence intensity is proportional to ATAD5 expression. […]
Records with an inconclusive call do not appear. Active and inactive are the calls of the source. Calls follow the shape of the dose curve; as a rule, active = well fitted inhibition curve with a large enough effect; inconclusive = small, poorly fitted or top-dose-only effect; inactive = no such curve, though single readings can be large or run the other way. Starred links: 1 amine or outer side, 2 acyl side, 3 side chain; linkers in the order of their positions; H or OH if unused. Positions of bridges follow the written chain, without caps; N, C: chain ends. Non-standard residues stand in square brackets, D forms with d. Residues, ends and D or L forms follow the SMILES beside them. ξ: configuration not given here. *: point of attachment. X3 = C[C@@H](Oc1ccc([C@H](N[*:1])C(=O)[*:2])cc1)[C@]1(/C=C\C(=O)[*:3])CO1; d(aIle) = CC[C@H](C)[C@@H](N)C(=O)O; X2 = CC(C)[C@@H](O)C(C)C(=O)*; ξNMeF = CNC(Cc1ccccc1)C(=O)O; ξT = CC(O)C(N)C(=O)O; ξS = NC(CO)C(=O)O
Thanks in advance; please answer with one of these: active, inactive

>  <molecule>
C[C@]12CC(O)C3[C@@H](CCC4C[C@@H](O)CC[C@@]43CO)[C@@]1(O)CC[C@@H]2C1=CC(=O)OC1 (some centres not stated)

>  <group label>
inactive

$$$$

Any idea what this test logged for CC[C@H](C)[C@H]1NC(=O)[C@@H](NC(=O)C(C)[C@H](O)C(C)C)[C@@H](C)OC(=O)C2COC(=O)CNC(=O)/C=C\[C@]3(CO3)[C@@H](C)Oc3ccc(cc3)[C@H](NC1=O)C(=O)N(C)C(Cc1ccccc1)C(=O)NC(C(C)O)C(=O)N2 (some centres not stated) (X2-T[d(aIle)][X3][ξNMeF][ξT][ξS]; ester 1-C; linker 3-6 via G) ?
inactive

Any idea what this test logged for c1ccc2nc3c(cc2c1)[nH]c1ccccc13 ?
inactive

Any idea what this test logged for C[N+](C)(C)CCc1c[nH]c2ccccc12 ?
inactive

Any idea what this test logged for C[C@]12CCC3[C@@H](CC[C@@H]4C[C@@H](O)CC[C@]34CO)[C@@]1(O)CC[C@@H]2C1=CC(=O)OC1 (some centres not stated) ?
active

Any idea what this test logged for CCC(=O)N[C@@H](C[C@H](C)C(Cl)(Cl)Cl)C(=O)N1C(=O)C=C(OC)[C@@H]1C[C@H](C)C(Cl)Cl ?
inactive

Any idea what this test logged for C=C[C@H]1CN2CCc3c([nH]c4cccc(OC)c34)[C@@H]2C[C@@H]1/C(=C\OC)C(=O)OC ?
inactive

The values you see were collected from PubChem BioAssay (NCATS).
